Value source: patent US6358885B1

test system: crabgrass; test: Test C preemergence/postemergence greenhouse plant response rating 0 to 100; format: in vivo, Digitaria sanguinalis; settings: Rate 16 g/ha; PREEMERGENCE
outcomeMeasure: Plant response rating (0 to 100), Crabgrass

compound	reportedValue
CCN1C(=O)COc2cc(F)c(-c3nn4c(c3Cl)CCCC4)cc21 [Compound 54]	0
CCCN1C(=O)COc2cc(F)c(-c3nn4c(c3Br)CCCC4)cc21 [Compound 63]	0
C#CCOc1cc(-c2nn3c(c2Br)CCCC3)c(F)cc1Cl [Compound 26]	0
C#CC(C)Oc1cc(-c2nn3c(c2Br)CCCC3)c(F)cc1Cl (centres unmarked) [Compound 66]	0
CC(C)Oc1cc(-c2nn3c(c2Br)CCCC3)c(F)cc1Cl [Compound 38]	10

###

system: velvetleaf; assay: Test C preemergence/postemergence greenhouse plant response rating 0 to 100; format: in vivo, Abutilon theophrasti; settings: POSTEMERGENCE; Rate 4 g/ha
Decide by Plant response rating (0 to 100), Velvetleaf: equal to or exceeding 80 means met, less means not met.

chemicalString	qualitativeLabel
COC(=O)c1cc(-c2nn3c(c2Cl)CCCC3)c(F)cc1Cl	not met
CC(C)COc1cc(-c2nn3c(c2Cl)CCCC3)c(F)cc1Cl	not met
CC(C)N1C(=O)COc2cc(F)c(-c3nn4c(c3Cl)CCCC4)cc21	met
C=CCN1C(=O)COc2cc(F)c(-c3nn4c(c3Cl)CCCC4)cc21	met

###

test system: morningglory; experiment: Test B preemergence/postemergence greenhouse plant response rating 0 to 10; format: in vivo, Ipomoea hederacea; conditions: PREEMERGENCE, Rate 50 g/ha; 0 to 10 scale

compound	assayTarget	Plant response rating, Morningglory
C#CC(C)Oc1cc(-c2nn3c(c2Br)CCCC3)c(F)cc1Cl (stereo not shown) [Compound 66]	morningglory	0
CON=C(C)c1cc(-c2nn3c(c2Cl)CCCC3)c(F)cc1Cl [Compound 82]	morningglory	0
CC(=O)c1cc(-c2nn3c(c2Cl)CCCC3)c(F)cc1Cl [Compound 45]	morningglory	2
CCCOc1cc(-c2nn3c(c2Cl)CCCC3)c(F)cc1Cl [Compound 23]	morningglory	3
Fc1cc(Cl)c(OC2CCCC2)cc1-c1nn2c(c1Cl)CCCC2 [Compound 24]	morningglory	1
C#CCN1C(=O)COc2cc(F)c(-c3nn4c(c3Br)CCCC4)cc21 [Compound 56]	morningglory	6
O=C1COc2cc(F)c(-c3nn4c(c3Cl)CCCC4)cc2N1 [Compound 51]	morningglory	9
CCC(C)Oc1cc(-c2nn3c(c2Cl)CCCC3)c(F)cc1Cl (stereo not shown) [Compound 48]	morningglory	1
COCCN1C(=O)COc2cc(F)c(-c3nn4c(c3Cl)CCCC4)cc21 [Compound 53]	morningglory	10
CC(C)OC(=O)c1cc(-c2nn3c(c2Cl)CCCC3)c(F)cc1Cl [Compound 44]	morningglory	7
CC(C)Oc1cc(-c2nn3c(c2Cl)CCCC3)c(F)cc1Cl [Compound 21]	morningglory	2
C#CC(C)N1C(=O)COc2cc(F)c(-c3nn4c(c3Cl)CCCC4)cc21 (stereo not shown) [Compound 50]	morningglory	2
COC(=O)C(C)Oc1cc(-c2nn3c(c2Cl)CCCC3)c(F)cc1Cl (stereo not shown) [Compound 28]	morningglory	3
FCCCOc1cc(-c2nn3c(c2Cl)CCCC3)c(F)cc1Cl [Compound 79]	morningglory	0
CCOCOc1cc(-c2nn3c(c2Cl)CCCC3)c(F)cc1Cl [Compound 59]	morningglory	2
C=C(Cl)COc1cc(-c2nn3c(c2Cl)CCCC3)c(F)cc1Cl [Compound 40]	morningglory	1
CCOC(=O)c1cc(-c2nn3c(c2Cl)CCCC3)c(F)cc1Cl [Compound 78]	morningglory	0
C=CCOc1cc(-c2nn3c(c2Cl)CCCC3)c(Cl)cc1Cl [Compound 71]	morningglory	0
C=CCOC(=O)COc1cc(-c2nn3c(c2Cl)CCCC3)c(F)cc1Cl [Compound 62]	morningglory	0

###

test system: velvetleaf; assay: Test B preemergence/postemergence greenhouse plant response rating 0 to 10; format: in vivo, Abutilon theophrasti; conditions: PREEMERGENCE, Rate 200 g/ha
outcomeMeasure: Plant response rating (0 to 10 scale), Velvetleaf

molecule	reportedValue
COCOc1cc(-c2nn3c(c2Cl)CCCC3)c(F)cc1Cl	10
C#CC(C)Oc1cc(-c2nn3c(c2Br)CCCC3)c(F)cc1Cl (centres unmarked)	9
CON=C(C)c1cc(-c2nn3c(c2Cl)CCCC3)c(F)cc1Cl	10
Oc1cc(-c2nn3c(c2Br)CCCC3)c(F)cc1Cl	10
C#CC(C)Oc1cc(-c2nn3c(c2Cl)CCCC3)c(Cl)cc1Cl (centres unmarked)	9

###

In this section we review reported Plant response rating, Bermudagrass values for a set of compounds.
test system: bermudagrass; experiment: Test G preemergence/postemergence greenhouse plant response rating 0 to 100; format: in vivo, Cynodon dactylon; settings: PREEMERGENCE, Rate 125 g/ha, 0 to 100 scale
outcomeMeasure: Plant response rating, Bermudagrass

chemicalString	outcomeMeasure	reportedValue
Fc1cc(Cl)c(OC2CCCC2)cc1-c1nn2c(c1Cl)CCCC2	Plant response rating, Bermudagrass	30
CC(C)Oc1cc(-c2nn3c(c2Cl)CCCC3)c(F)cc1Cl	Plant response rating, Bermudagrass	20
C#CCOc1cc(-c2nn3c(c2Br)CCCC3)c(F)cc1Cl	Plant response rating, Bermudagrass	0
CCCN1C(=O)COc2cc(F)c(-c3nn4c(c3Cl)CCCC4)cc21	Plant response rating, Bermudagrass	0
C=CCN1C(=O)COc2cc(F)c(-c3nn4c(c3Cl)CCCC4)cc21	Plant response rating, Bermudagrass	0

###

tested on: chickweed; assay: Test C preemergence/postemergence greenhouse plant response rating 0 to 100; assay type: in vivo, Stellaria media; details: POSTEMERGENCE, 62 g/ha, 0 to 100 scale
Quick reference for Plant response rating, Chickweed among some compounds

compound	assayTarget	Plant response rating, Chickweed
CCC(C)Oc1cc(-c2nn3c(c2Cl)CCCC3)c(F)cc1Cl (stereo not shown)	chickweed	60
COCN1C(=O)COc2cc(F)c(-c3nn4c(c3Cl)CCCC4)cc21	chickweed	100
CC(C)OC(=O)c1cc(-c2nn3c(c2Cl)CCCC3)c(F)cc1Cl	chickweed	95
C#CCN1C(=O)COc2cc(F)c(-c3nn4c(c3Br)CCCC4)cc21	chickweed	100
CC(C)N1C(=O)COc2cc(F)c(-c3nn4c(c3Cl)CCCC4)cc21	chickweed	90
C#CCOc1cc(-c2nn3c(c2Br)CCCC3)c(F)cc1Cl	chickweed	100
C#CC(C)N1C(=O)COc2cc(F)c(-c3nn4c(c3Cl)CCCC4)cc21 (stereo not shown)	chickweed	100

###

As shown below, each of these compounds has a reported Plant response rating, Sugar beet value.
test system: sugar beet; test: Test B preemergence/postemergence greenhouse plant response rating 0 to 10; format: in vivo, Beta vulgaris; details: PREEMERGENCE, Rate 50 g/ha; 0 to 10 scale
outcomeMeasure: Plant response rating, Sugar beet

compound	assayTarget	outcomeMeasure	reportedValue
C#CC(C)Oc1cc(-c2nn3c(c2Cl)CCCC3)c(Cl)cc1Cl (stereo not drawn)	sugar beet	Plant response rating, Sugar beet	0
COCCOc1cc(-c2nn3c(c2Cl)CCCC3)c(Cl)cc1Cl	sugar beet	Plant response rating, Sugar beet	0
Oc1cc(-c2nn3c(c2Cl)CCCC3)c(Cl)cc1Cl	sugar beet	Plant response rating, Sugar beet	0
COCN1C(=O)COc2cc(F)c(-c3nn4c(c3Cl)CCCC4)cc21	sugar beet	Plant response rating, Sugar beet	10
CC(C#N)Oc1cc(-c2nn3c(c2Cl)CCCC3)c(F)cc1Cl (stereo not drawn)	sugar beet	Plant response rating, Sugar beet	9
COC(=O)c1cc(-c2nn3c(c2Cl)CCCC3)c(F)cc1Cl	sugar beet	Plant response rating, Sugar beet	9
CC(C)OC(=O)COc1cc(-c2nn3c(c2Br)CCCC3)c(F)cc1Cl	sugar beet	Plant response rating, Sugar beet	9
CCCN1C(=O)COc2cc(F)c(-c3nn4c(c3Cl)CCCC4)cc21	sugar beet	Plant response rating, Sugar beet	7
CCCCN1C(=O)COc2cc(F)c(-c3nn4c(c3Cl)CCCC4)cc21	sugar beet	Plant response rating, Sugar beet	9

###

system: lambsquarters; test: Test B preemergence/postemergence greenhouse plant response rating 0 to 10; assay type: in vivo, Chenopodium album; conditions: PREEMERGENCE, Rate 50 g/ha; 0 to 10 scale
Quick reference: Plant response rating, Lambsquarter of the listed items.

molecule	Plant response rating, Lambsquarter
Fc1cc(Cl)c(OC2CCCC2)cc1-c1nn2c(c1Cl)CCCC2	9
Clc1ccc(-c2nc3n(c2Br)CCCC3)c(Cl)c1	0
C#CC(C)N1C(=O)COc2cc(F)c(-c3nn4c(c3Cl)CCCC4)cc21 (centres unmarked)	10
C=CCOc1cc(-c2nn3c(c2Br)CCCC3)c(F)cc1Cl	10
CC(C)N1C(=O)COc2cc(F)c(-c3nn4c(c3Cl)CCCC4)cc21	10
